These data points were gathered from patent US20260001911A1.

- Tested on: Lung adenocarcinoma cell A549
- assay.name: cells
- condition.info: 72 h
Numbered stars: 1 amine (or outer) side, 2 acyl side, 3 side chain; on linkers, the order of the positions; unused ones are H or OH. Square brackets hold non-standard residues; d marks the D form. Peptide text beside a SMILES is read from it. NMeF = CN[CH](Cc1ccccc1)C(=O)O; X1 = O=C(C1CCCNN1[*:1])[*:2]; NMeV = CN[CH](C(=O)O)C(C)C; NMeS = CN[CH](CO)C(=O)O; NMeA = CN[CH](C)C(=O)O; βAla = NCCC(=O)O
Assignment: determine reported IC50 for the given compounds.
A number alone suffices; assume µM.

The compound CC(C)CC1NC(C)C(Cc2ccccc2)N(C)C(=O)C(C)NC(=O)C(C(C)C)N(C)C(=O)CCNC(=O)C(C)NC(=O)C(C(C)C)NC(=O)C(Cc2ccccc2)N(C)C(=O)C2CCCNN2C(=O)C(CO)N(C)C1=O (stereo not shown) [Lenziamide E] , tested on Lung adenocarcinoma cell A549, showed IC50 of 1.78

The compound CCC(C)C1NC(=O)C(Cc2c[nH]c3ccccc23)N(C)C(=O)C2CCCNN2C(=O)C(CO)N(C)C(=O)C(CC(C)C)NC(C)C(Cc2ccccc2)N(C)C(=O)C(C)NC(=O)C(C(C)C)N(C)C(=O)CCNC(=O)C(C)N(C)C1=O (stereo not shown) [Lenziamide B] , tested on Lung adenocarcinoma cell A549, showed IC50 of 0.43

The compound CC(C)CC1NC(C)C(Cc2ccccc2)N(C)C(=O)C(C)NC(=O)C(C(C)C)N(C)C(=O)CCNC(=O)C(C)N(C)C(=O)C(C(C)C)NC(=O)C(Cc2ccccc2)N(C)C(=O)C2CCCNN2C(=O)C(CO)N(C)C1=O (stereo not shown) [Lenziamide C] , tested on Lung adenocarcinoma cell A549, showed IC50 of 0.76

The compound CCC(C)C1NC(=O)C(Cc2ccccc2)N(C)C(=O)C2CCCNN2C(=O)C(CO)N(C)C(=O)C(CC(C)C)NC(=O)C(Cc2ccccc2)N(C)C(=O)C(C)NC(=O)C(C(C)C)N(C)C(=O)CCNC(=O)C(C)N(C)C1=O (stereo not shown) [Lenziamide A] (cyclo([X1][NMeF]I[NMeA][βAla][NMeV]A[NMeF]L[NMeS]); configuration not given here) , tested on Lung adenocarcinoma cell A549, showed IC50 of 0.8

====

Assignment: determine reported pIC50 for the given compounds.
- Tested on: liver adenocarcinoma cell SK-HEP-1
- assay.name: cells
- condition.info: 72 h
Numbered stars: 1 amine (or outer) side, 2 acyl side, 3 side chain; on linkers, the order of the positions; unused ones are H or OH. Square brackets hold non-standard residues; d marks the D form. Peptide text beside a SMILES is read from it. NMeF = CN[CH](Cc1ccccc1)C(=O)O; X1 = O=C(C1CCCNN1[*:1])[*:2]; NMeV = CN[CH](C(=O)O)C(C)C; NMeS = CN[CH](CO)C(=O)O; NMeA = CN[CH](C)C(=O)O; βAla = NCCC(=O)O
Scale explanation: pIC50 corresponds to minus log10 of a concentration expressed in moles per litre.

GET /value?item= CCC(C)C1NC(=O)C(Cc2c[nH]c3ccccc23)N(C)C(=O)C2CCCNN2C(=O)C(CO)N(C)C(=O)C(CC(C)C)NC(C)C(Cc2ccccc2)N(C)C(=O)C(C)NC(=O)C(C(C)C)N(C)C(=O)CCNC(=O)C(C)N(C)C1=O (stereo not shown) [Lenziamide B] &field=pIC50 returns 6.66

GET /value?item= CC(C)CC1NC(C)C(Cc2ccccc2)N(C)C(=O)C(C)NC(=O)C(C(C)C)N(C)C(=O)CCNC(=O)C(C)N(C)C(=O)C(C(C)C)NC(=O)C(Cc2ccccc2)N(C)C(=O)C2CCCNN2C(=O)C(CO)N(C)C1=O (stereo not shown) [Lenziamide C] &field=pIC50 returns 6.28

GET /value?item= CCC(C)C1NC(=O)C(Cc2ccccc2)N(C)C(=O)C2CCCNN2C(=O)C(CO)N(C)C(=O)C(CC(C)C)NC(=O)C(Cc2ccccc2)N(C)C(=O)C(C)NC(=O)C(C(C)C)N(C)C(=O)CCNC(=O)C(C)N(C)C1=O (stereo not shown) [Lenziamide A] (cyclo([X1][NMeF]I[NMeA][βAla][NMeV]A[NMeF]L[NMeS]); configuration not given here) &field=pIC50 returns 6.41

GET /value?item= CC(C)CC1NC(C)C(Cc2ccccc2)N(C)C(=O)C(C)NC(=O)C(C(C)C)N(C)C(=O)CCNC(=O)C(C)NC(=O)C(C(C)C)NC(=O)C(Cc2ccccc2)N(C)C(=O)C2CCCNN2C(=O)C(CO)N(C)C1=O (stereo not shown) [Lenziamide E] &field=pIC50 returns 6.02
